Cited source for all entries: paper PMC6434189

measurement_notes: Pharmacokinetic study of DMAPE in rats
Format: in vivo, Sprague–Dawley rats
condition_label: male, Sprague-Dawley; rat plasma, DMAPE 50 mg/kg intravenous
measurement_type: AUC(0-inf) (ng·h/mL)

[1] C=C1C(=O)OC[C@H]1C(c1cc(OC)c2c(c1)OCO2)c1cc(OC)c2c(c1)OCO2
[2] COc1cc(C(c2cc(OC)c3c(c2)OCO3)[C@@H]2COC(=O)[C@H]2CN(C)CCO)cc2c1OCO2
Given 1 and given 2 , which shows the smaller recorded AUC(0-inf)? When you have decided, please share the label of that item. 1

====

measurement_notes: Pharmacokinetic study of DMAPE in rats
Format: in vivo, Sprague–Dawley rats
condition_label: male, Sprague-Dawley, po; rat plasma, DMAPE 50 mg/kg intragastric
Text: The UFLC-MS/MS system consisted of a Prominence™ UFLC system (Shimadzu, Kyoto, Japan) coupled with a QTRAP™ 5500 MS/MS system (Applied Biosystems/MDS SCIEX, Foster City, CA, USA) and controlled by the Analyst 1.5.2 software. MS‐grade methanol and acetonitrile were purchased from Merck (Darmstadt, Germany). Ultra‐pure water was generated using a MilliQ™ direct water purification system (Merck–Millipore, Billerica, MA, USA). […]
measurement_type: AUC(0-t) (ng·h/mL)

[A] C=C1C(=O)OC[C@H]1C(c1cc(OC)c2c(c1)OCO2)c1cc(OC)c2c(c1)OCO2
[B] COc1cc(C(c2cc(OC)c3c(c2)OCO3)[C@@H]2COC(=O)[C@H]2CN(C)CCO)cc2c1OCO2
Form field 'greater AUC(0-t)' accepts A or B ; which applies? When you have decided, please share the label of that item. B
